B1: Zinc finger MYM-type protein 3, residues 405 to 444; numbered along this chain, Q14202 (parent)
chain: DATRCSICQKTGEVLHEVSNGSVVHRLCSDSCFSKFRANK

variants of: B1; assay: abundance fitness (aPCA) (normalised: wild type 0, dead -1); higher = more abundant; growth selection in yeast, the domain comes from the species named; settings: Homo sapiens
abundance fitness listing for selected variants.
Answer with the value's number alone.

Solved entries (count: 2):
residue-change: H16G
abundance fitness: -0.306

residue-change: F36M
abundance fitness: -0.296

Alright, here's another variant for you.
Q: Give me measured abundance fitness, please, for this variant: T11D
A: -0.104
